Taken from PubChem BioAssay (NCATS).

- Experiment: qHTS of pediatric cancer cell lines to identify multiple opportunities for drug repurposing: Confirmatory screen for Rh18 cells (AID 1347125);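 also: cells exposed to compound for 48 h; nearly all actives have a fitted effect of over 55% in size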
- Protocol Conditions: Rh18 rhabdomyosarcoma cells, viability; series mostly up to 45.9 µM
- Procedure: Drug repurposing or repositioning has been offered as a strategy for drug development in oncology programs. […] [1] Shen, M et al. Quantitative high-throughput phenotypic screening of pediatric cancer cell lines identifies multiple opportunities for drug repurposing. […] Cells were assayed in growth media at a density of 500-1,000 cells/well. […] After a 15 min incubation at room temperature, samples were analyzed for luminescence intensity using a ViewLux High-throughput CCD imager equipped with clear filters.
Inconclusive results are not listed. Activity calls are given as the source filed them. Calls follow the shape of the dose curve; as a rule, active = well fitted cell-killing curve with a large enough effect; inconclusive = small, poorly fitted or top-dose-only effect, or effect the other way; inactive = flat fitted curve, though single readings scatter.
Outcome (select one): active, inactive

Sample answers from the record:
- CN[C@H]1CCc2cc(OC)c(OC)c(OC)c2-c2ccc(OC)c(=O)cc21: inactive
- Cc1[nH]nc2ccc(-c3cncc(OC[C@@H](N)Cc4ccccc4)c3)cc12: active
- CC=CC1=C(C(=O)O)N2C(=O)[C@H](NC(=O)[C@H](N)c3ccc(O)cc3)[C@@H]2SC1: inactive

Q. What call does the record list for `Cc1ccc(C(=O)Nc2cccc(C(F)(F)F)c2)cc1-c1ccc2nc(NCCN3CCOCC3)ncc2c1` ?
A. active

Q. What call does the record list for `CC1(C)CCC(c2ccc(Cl)cc2)=C(CN2CCN(c3ccc(C(=O)NS(=O)(=O)c4ccc(N[C@H](CCN5CCOCC5)CSc5ccccc5)c(S(=O)(=O)C(F)(F)F)c4)cc3)CC2)C1` ?
A. inactive

Q. What call does the record list for `CNC(=O)c1c(F)cccc1Nc1nc(Nc2cc3c(cc2OC)CCN3C(=O)CN(C)C)nc2[nH]ccc12` ?
A. active
